Test system: NO production in IFN-γ/LPS-stimulated RAW 264.7 macrophages
Assay: NO suppression (Griess nitrite determination) in IFN-γ/LPS-stimulated RAW 264.7 macrophages
Assay type: cell-based, murine
Conditions: 50 µM test concentration; IFN-γ/LPS-stimulated RAW 264.7 cells; 50 µM
Task for the reader: assign each of the following compounds its reported NO Inhibition at 50 µM (%) ± S.E.M.
Value expressed in %; do not type the unit.

Challenge: Item COc1cccc(/C=C/C(O)=C/C(=O)c2cc(OC)ccc2O)c1 [Compound 62] : provide NO Inhibition at 50 µM (%) ± S.E.M
Response given: 92.6

Challenge: Item O=C(/C=C(O)/C=C/c1cc(O)ccc1O)c1ccccc1O [Compound 83] : provide NO Inhibition at 50 µM (%) ± S.E.M
Response given: 94.3

Challenge: Item COc1cc(/C=C/C(=O)CC(=O)/C=C/c2ccc(O)c(OC)c2)ccc1O [Curcumin, curcumin, reference compound] : provide NO Inhibition at 50 µM (%) ± S.E.M
Response given: 99.3

Challenge: Item COc1ccc(/C=C/C(O)=C/C(=O)c2ccccc2O)cc1OC [Compound 8] : provide NO Inhibition at 50 µM (%) ± S.E.M
Response given: 94.7
